Each item that follows carries a reported GI50.
Tested on: 786-0
assay-details: NCI tumour cell line growth inhibition, 48 h
Active and inactive are the calls of the source. Rule as the data show it: active = GI50 up to about 1.1 µM and inactive = higher.

- compound: "CCOC(=O)c1c(-c2ccc(OC)c(O)c2)c(C#N)c(=S)n(C2OC(CO)C(O)C(O)C2O)c1-c1ccccc1 (stereo not given)"
  measured-target: "786-0"
  GI50: "> 100 µM (inactive)"
- compound: "COc1cc2c(cc1O)[C@]1(Cc3ccc4c(c3C1=O)OCO4)N(C)CC2"
  measured-target: "786-0"
  GI50: "> 100 µM (inactive)"
- compound: "CC(=O)Oc1c(C)c2c(O)c3c1C1=C(OCOC1=C(C)C3=O)/C(C)=C/C(C)(O)C(O)C(C)C(O)C1C(=O)OC(C(C)C1O)C(C)(O)/C=C\\C=C(C)C(=O)N2 (stereo not given)"
  measured-target: "786-0"
  GI50: "53.7 µM (inactive)"
- compound: "CCC1(O)CC(c2ccccc2)N(C)C(c2ccccc2)C1 (stereo not given)"
  measured-target: "786-0"
  GI50: "> 100 µM (inactive)"

Next compound, please.
Lookup: Item CCOC(=O)CCC(NC(=O)c1ccc(NCc2ccc3nc(OC)c(OC)nc3c2)c2ccccc12)C(=O)OCC (stereo not given) has what recorded GI50?
Found: 26.2 µM (inactive)

* * *

Each item that follows carries a reported GI50.
Tested on: A549
assay-details: NCI tumour cell line growth inhibition, 48 h
The source made the active and inactive calls. No stated cut-off is given here; in the data, active = GI50 up to about 1.1 µM and inactive = higher.

Use these answered entries as a reference point.
- compound: "[N-]=[N+]=Nc1ccccc1C(=O)N1C(=O)c2ccccc2C(=O)N(C(=O)c2ccccc2N=[N+]=[N-])c2ccccc21"
  GI50: "37.1 µM (inactive)"
- compound: "N#CC1(C#N)C=CC(=C2OCC3CCCN23)C=C1 (centres undefined)"
  GI50: "> 100 µM (inactive)"
- compound: "CC(C)Oc1cc(O)c2c(c1)OCC=C2CCC(=O)O"
  GI50: "28.1 µM (inactive)"
- compound: "CC(=N/NC(=S)N1CCCCCC1)/C(C)=N\\NC(=S)N1CCCCCC1"
  GI50: "5.3 µM (inactive)"
- compound: "COC(=O)[C@H](Cc1c[nH]c2ccccc12)NP(=O)(O)OC[C@H]1O[C@@H](n2cc(C)c(=O)[nH]c2=O)C[C@@H]1N=[N+]=[N-]"
  GI50: "> 100 µM (inactive)"

Lookup: Item `c1ccc(-c2cc(-c3ccccc3)nc(-c3ccncc3)c2)cc1` has what recorded GI50?
Found: > 100 µM (inactive)

Lookup: Same lookup for `CC(C)(C)OC(=O)NCC(=O)N1CCCN(C(=O)CNC(=O)OC(C)(C)C)CC1` , please.
Found: > 100 µM (inactive)

Lookup: Same lookup for `CS(=O)(=O)O[C@H]1[C@H](O)c2ccccc2[C@@H]1N=[N+]=[N-]` , please.
Found: > 100 µM (inactive)

Lookup: Same lookup for `O=[N+]([O-])c1cc(/C=N\NS(=O)(=O)c2ccc(Cl)cc2)c(O)c([N+](=O)[O-])c1` , please.
Found: 37.8 µM (inactive)

* * *

Test system: NCI-H460
assay-details: NCI tumour cell line growth inhibition, 48 h
Calls of active or inactive are those of the source. No stated cut-off is given here; in the data, active = GI50 up to about 1.1 µM and inactive = higher.
Entry note: the call must match one of active, inactive

- compound: "O=C1Nc2ccccc2NC1C1OC(c2ccccc2)=CC1=O (stereo unspecified)"
  measured-target: "NCI-H460"
  assigned-category: "inactive"
- compound: "C[n+]1c2ccccc2c(C(=O)Nc2ccc(S(=O)(=O)Nc3ccnn3-c3ccccc3)cc2)c2ccccc21"
  measured-target: "NCI-H460"
  assigned-category: "inactive"
- compound: "C=C(Cl)[C@](Cl)(CBr)CC[C@@H](Br)C(C)(C)Cl"
  measured-target: "NCI-H460"
  assigned-category: "active"

Lookup: Kindly provide the recorded test outcome for the following compound: Cc1cc(Br)cc(C)c1NC(=O)C(=O)C(C(=O)c1ccc(Cl)c(Cl)c1)C1OC(=O)c2ccccc21 (stereo unspecified)
Found: inactive

Lookup: Same lookup for `C[C@@H]1S[C@H](c2ccccc2F)N2Cc3ccccc3N=C12` , please.
Found: inactive

Lookup: Same lookup for `CCN(CC)CCNC(=O)c1cccc2cc3ccccc3nc12` , please.
Found: inactive

Lookup: Same lookup for `O=C1OC(c2ccccc2)=N/C1=C\c1cccnc1` , please.
Found: inactive

Lookup: Same lookup for `S=C1SCN(C2CCCCCCCCCCC2)CN1C1CCCCCCCCCCC1` , please.
Found: inactive

Lookup: Same lookup for `CC1=COC2=C(C)C(=O)C(=O)c3c(C)ccc1c32` , please.
Found: inactive

Lookup: Same lookup for `CN1CCc2c1nc(-c1ccc([N+](=O)[O-])cc1)c1c2N(C)CC1` , please.
Found: inactive

Lookup: Same lookup for `COc1cc(OC)c(/C=C/c2cnc3ccccc3n2)c(OC)c1` , please.
Found: inactive

* * *

Tested on: NCI/ADR-RES
assay-details: NCI tumour cell line growth inhibition, 48 h
Calls of active or inactive are those of the source. Cut-off read from the data, not from the text of the source: active = GI50 up to about 1.1 µM and inactive = higher.
Each item that follows carries a reported GI50.

Use these answered entries as a reference point.
- compound: "COC(=O)c1csc(-c2nc(CCNC(=O)OC(C)(C)C)sc2Br)n1"
  obs-value: "> 100 µM (inactive)"
- compound: "Nn1c(-c2ccccc2)nn(C(=O)c2ccccc2)c1=O"
  obs-value: "> 100 µM (inactive)"
- compound: "O=C(O)CCC(=O)Nc1ccc2ccccc2c1"
  obs-value: "> 100 µM (inactive)"
- compound: "CN(C)CCN(C)P12(Oc3ccccc3O1)Oc1c(Cl)c(Cl)c(Cl)c(Cl)c1O2"
  obs-value: "35.8 µM (inactive)"

Next compound, please.
Lookup: What reported GI50 corresponds to CCOC(=O)c1c(-c2ccc(OC)c(O)c2)c(C#N)c(=S)n(C2OC(CO)C(O)C(O)C2O)c1-c1ccccc1 (stereo not given) on NCI/ADR-RES?
Found: > 100 µM (inactive)

* * *

System: MOLT-4
assay-details: NCI tumour cell line growth inhibition, 48 h
The source made the active and inactive calls. Rule as the data show it: active = GI50 up to about 1.1 µM and inactive = higher.
Entry note: the call must match one of 1 (yes) (active), 0 (no) (inactive)

- molecule: "CNc1ncnc(Sc2nc(N)nc3[nH]cnc23)c1[N+](=O)[O-]"
  measured-target: "MOLT-4"
  assigned-category: "1 (yes)"

Lookup: Kindly provide the recorded test outcome for the following molecule: `Nc1ccc2nc(Nc3ccc(Cl)c(Cl)c3)cnc2c1`
Found: 0 (no)

Lookup: Same lookup for COC(=O)c1c2c(cc3c1CC1(Cc4ccc(C(C)=O)cc4C1)C3)CCC2 (stereo not given) , please.
Found: 0 (no)

Lookup: Same lookup for CC1(C)C(O)C[C@]23CCC[C@](C)(C[C@@H](O)C12)C3 (stereo not given in full) , please.
Found: 0 (no)

Lookup: Same lookup for COC(=O)CCC(C)[C@H]1CCC2C3C(C[C@H](OC(C)=O)[C@@]21C)[C@@]1(C)CCC2(C[C@H]1C[C@H]3OC(C)=O)OOC1(CCC(C(C)(C)C)CC1)OO2 (stereo not given in full) , please.
Found: 0 (no)

* * *

Test system: NCI/ADR-RES
assay-details: NCI tumour cell line growth inhibition, 48 h
Calls of active or inactive are those of the source. No stated cut-off is given here; in the data, active = GI50 up to about 1.1 µM and inactive = higher.
measurement-kind: GI50

Lookup: Item `C/N=c1\sc2c(n1C)C(=O)c1ccccc1C2=O` has what recorded GI50?
Found: 3.95 µM (inactive)

Lookup: Same lookup for `c1csc(-c2nn3c(C45CC6CC(CC(C6)C4)C5)nnc3s2)c1` , please.
Found: > 100 µM (inactive)

Lookup: Same lookup for O=P1(C(O)/C=C/c2ccccc2)N(Cc2ccccc2)[C@H](c2ccccc2)[C@@H](c2ccccc2)N1Cc1ccccc1 (stereo partly drawn) , please.
Found: 26 µM (inactive)

Lookup: Same lookup for CN1C(=O)c2ccccc2NC(=O)C12O[C@@H]2c1cccc(O)c1 (stereo partly drawn) , please.
Found: > 100 µM (inactive)

Lookup: Same lookup for `CS(=O)(=O)O[C@H]1[C@H](O)c2ccccc2[C@@H]1N=[N+]=[N-]` , please.
Found: > 100 µM (inactive)

Lookup: Same lookup for `COC(=O)[C@@H](O)[C@](O)(CCC(C)C)C(=O)O[C@@H]1C(OC)=C[C@]23CCCN2CCc2cc4c(cc2[C@H]13)OCO4` , please.
Found: 11.8 µM (inactive)

Lookup: Same lookup for COCOC1/C=C/CCCCC2=C(C)C=C(C1)O2 (stereo not drawn) , please.
Found: > 100 µM (inactive)

Lookup: Same lookup for CC(=O)O[C@H]1C(=O)[C@@]2(C)C(C(OC(=O)c3ccccc3)[C@]3(O)CC(OC(=O)C(O)C(NC(=O)c4cccc(Cl)c4)c4ccccc4)C(C)=C1C3(C)C)[C@]1(OC(C)=O)CO[C@@H]1C[C@@H]2O (stereo partly drawn) , please.
Found: 5.28 µM (inactive)

* * *

Tested on: SK-MEL-5
assay-details: NCI tumour cell line growth inhibition, 48 h
Calls of active or inactive are those of the source. Cut-off read from the data, not from the text of the source: active = GI50 up to about 1.1 µM and inactive = higher.
Each item that follows carries a reported GI50.

Use these answered entries as a reference point.
- molecule: "CCN(CC)CCNC(=O)c1cccc2cc3ccccc3nc12"
  obs-value: "4.52 µM (inactive)"
- molecule: "ClCCN1CCO/C1=N/c1ccc2c(c1)CCCC2"
  obs-value: "1.96 µM (inactive)"
- molecule: "Cc1cccc(N2CCN(S(=O)(=O)c3ccc(Cl)cc3)C2=N)c1C"
  obs-value: "> 100 µM (inactive)"
- molecule: "NC(=S)SC1=NC(=O)C2(NN1)c1ccccc1-c1ccccc12"
  obs-value: "6.12 µM (inactive)"
- molecule: "COc1ccc(NC(=S)c2ccoc2C)cc1CC(=O)OC(C)C"
  obs-value: "34.1 µM (inactive)"
- molecule: "O=C1CCC2(c3ccccc3)Nc3cc(Cl)ccc3N12 (stereo unspecified)"
  obs-value: "16.9 µM (inactive)"
- molecule: "CC(C)Oc1cc(O)c2c(c1)OCC=C2CCC(=O)O"
  obs-value: "18.4 µM (inactive)"
- molecule: "O=C(O)CCC(=O)Nc1ccc2ccccc2c1"
  obs-value: "> 100 µM (inactive)"
- molecule: "CCn1c2c(c3ccccc31)C(c1ccccc1)CC1C(=O)N(c3ccccc3)C(=O)C21 (stereo unspecified)"
  obs-value: "31.7 µM (inactive)"
- molecule: "O=C(O)CCC(NC(=O)c1ccc(CNc2nc3ccccc3nc2C(=O)O)cc1)C(=O)O (stereo unspecified)"
  obs-value: "> 100 µM (inactive)"

Next molecule, please.
Lookup: Item `COc1ccccc1/C=C1\C(=O)N(C(=O)c2ccc(NC(C)=O)cc2)N=C1C` has what recorded GI50?
Found: > 100 µM (inactive)

Measured values drawn from ChEMBL document CHEMBL1201862 for this set.
